Read-out: flavin-containing dimethylaniline monooxygenases 3 (FMO3), FMO3 (gene 2328)
Assay: LTEA_HepaRG_FMO3: Life Technologies and Expression Analysis (LTEA) Assay for flavin-containing dimethylaniline monooxygenases 3 (FMO3) using HepaRG (AID 2283453)
Conditions: mRNA level, 48 h; actives raise or lower the signal
Calls of active or inactive are those of the source. Rule for the calls: active = hit-call score of the fitted dose curve at least 0.9, where 1 is the maximum; inactive = score below 0.9.
Parameter call: string, one of T = active, F = inactive

• O=C(N[C@@H](Cc1ccccc1)[C@@H](O)C(=O)N1C[C@@H](O)[C@@H](O)C1)c1cc2cc(Cl)ccc2[nH]1 = F
• Clc1cc(Cl)c(Cl)cc1Cl = F
• CCCCc1ccc2c(n1)[C@@H](c1ccc(OC)cc1C[C@H](C)C(=O)O)[C@H](C(=O)O)[C@H]2c1ccc2c(c1)OCO2 = F
• CCCCCCCCCCCC(=O)OC = F
• O=[N+]([O-])C(CO)(CO)CO = F
• CN[C@H]1CC[C@@H](c2ccc(Cl)c(Cl)c2)c2ccc(S(N)(=O)=O)cc21 = T
• CN1CCN(Cc2cc(-c3ccc4[nH]c(=O)oc4c3)co2)[C@@H](c2ccc(F)cc2)C1 = F
• COc1ccc2c(c1)c(CC(=O)O)c(C)n2C(=O)c1ccc(Cl)cc1 = F

Task item: Hey, what did the test say about `C=CCOC(=O)c1ccccc1C(=O)OCC=C` ?
Reply: F

Task item: Hey, what did the test say about `CCCCCCCCCCCCCCCC` ?
Reply: F

The measurements presented in this section are drawn from PubChem BioAssay (EPA / NIEHS).
